Tested on: CCRF-CEM
Assay: NCI tumour cell line growth inhibition, 48 h
Activity calls are given as the source filed them. No stated cut-off is given here; in the data, active = GI50 up to about 1.1 µM and inactive = higher.
Thanks in advance; please answer with one of these: active, inactive

molecule: C=C(CO)CC(O)c1ccccc1 (stereo unspecified)
testSystem: CCRF-CEM
qualitativeLabel: inactive

molecule: COc1ccc(C2=Nc3ccccc3SC(C)C2)cc1 (stereo unspecified)
testSystem: CCRF-CEM
qualitativeLabel: inactive

molecule: Cc1cc(C)c2c(=N)c3ccccc3n(CCCCCCn3c4ccccc4c(=N)c4c(C)cc(C)nc43)c2n1
testSystem: CCRF-CEM
qualitativeLabel: active

molecule: CC(=O)Oc1ccc2c(c1)c1c(=O)oc(N(C)C)nc1n2Cc1ccccc1
testSystem: CCRF-CEM
qualitativeLabel: inactive

molecule: COc1ccc(CNc2cc(=O)n(C)c(=O)[nH]2)cc1
testSystem: CCRF-CEM
qualitativeLabel: inactive

Task: Called result for `NNC(=O)CNC(=O)CSc1nnc(COc2ccc(Cl)cc2)n1-c1ccccc1`
Output: inactive

----------
Tested on: BT-549
Test: NCI tumour cell line growth inhibition, 48 h
Active and inactive are the calls of the source. No stated cut-off is given here; in the data, active = GI50 up to about 1.1 µM and inactive = higher. Non-standard residues stand in square brackets, D forms with d. Residues, ends and D or L forms follow the SMILES beside them. ξ: configuration not given here. *: point of attachment. NMeY = CN[C@@H](Cc1ccc(O)cc1)C(=O)O; Cbz = O=C(OCc1ccccc1)*; ξA = CC(N)C(=O)O
Thanks in advance; please answer with one of these: active, inactive

Would you please look over these solved cases?
compound: COC(=O)C(Cc1ccccc1)NC(=O)C(CCCNC(=N)N)NC(=O)OCc1ccccc1 (centres undefined)
qualitativeLabel: inactive
--
compound: CN1CC(c2ccccc2)C(O)(C2(c3ccccc3)CN(C)CC(c3ccccc3)C2=O)C(c2ccccc2)C1 (centres undefined)
qualitativeLabel: inactive
--
compound: COc1ccc([C@H](NC(=O)c2ccccc2)[C@@H](O)C(=O)O[C@H]2C[C@@]3(O)C(OC(=O)c4ccccc4)C4[C@](C)(C(=O)[C@H](OC(C)=O)C(=C2C)C3(C)C)[C@@H](O)C[C@H]2OC[C@@]42OC(C)=O)cc1 (some centres undefined)
qualitativeLabel: active
--
compound: COc1cc2c(cc1OC)C13CCN4CC5=CCOC6CC(=O)N2C1C6C5CC43O (centres undefined)
qualitativeLabel: inactive
--
compound: S=C1CSc2c(ccc3ccccc23)N1
qualitativeLabel: inactive

Task: Called result for `Cc1csc2c(P(=O)(OC(C)C)OC(C)C)c(-c3ccccc3)cn12`
Output: inactive

Task: What do you get for COc1ccc(C[C@@H](C(=O)NCC(N)=O)N(C)C(=O)[C@@H]2CCCN2C(=O)[C@H](CC(C)C)NC(=O)C(C)NC(=O)OCc2ccccc2)cc1 (some centres undefined) (Cbz-[ξA]LP[NMeY](Me)G-NH2) ?
Output: inactive

Task: What do you get for COc1cc(C2c3cc4c(cc3[C@H](NC(=O)c3cccs3)C3COC(=O)[C@H]23)OCO4)cc(OC)c1OC (some centres undefined) ?
Output: active

Task: What do you get for `COc1cc(-c2oc3ccccc3c(=O)c2O)cc(OC)c1OC` ?
Output: inactive

----------
Tested on: DLD-1
Test: NCI tumour cell line growth inhibition, 48 h
Active and inactive are the calls of the source. No stated cut-off is given here; in the data, active = GI50 up to about 1.1 µM and inactive = higher.
Thanks in advance; please answer with one of these: 1 for active, 0 for inactive

Would you please look over these solved cases?
compound: CC(C)(C)N/N=C(\C(=O)Nc1nnc(S)[nH]1)C1C(=O)Nc2ccccc2[S+]1[O-] (stereo unspecified)
qualitativeLabel: 0
--
compound: O=C1CCc2ccc(O)c(c2)Oc2ccc(cc2)[C@@H]2O[C@@H]2CO1
qualitativeLabel: 0
--
compound: COc1cc([C@@H]2c3cc4c(cc3[C@@H](OC3OC5COC(C)OC5C(O)C3O)[C@H]3COC(=O)[C@H]23)OCO4)cc(OC)c1O (stereo partly specified)
qualitativeLabel: 0
--
compound: CCC1C(=O)OCc2c1cc1n(c2=O)Cc2ccccc2-1 (stereo unspecified)
qualitativeLabel: 0

Task: Called result for C=C(CO)CC(O)c1ccccc1 (stereo unspecified)
Output: 0

Task: What do you get for `O=C1c2ccccc2-c2ccccc2C(=O)C1(Br)Br` ?
Output: 0

Task: What do you get for `COc1ccc(CC(N)=O)cc1OC` ?
Output: 0

----------
System: SF-539
Assay: NCI tumour cell line growth inhibition, 48 h
Active and inactive are the calls of the source. Rule as the data show it: active = GI50 up to about 1.1 µM and inactive = higher.
For each entry below, report its GI50 value.

Recorded GI50, per entry:
molecule: COC(=O)C(=O)C(/C(=N/N)C(=O)Nc1ccccc1C(N)=O)c1nc2ccc([N+](=O)[O-])cc2nc1O (stereo not given)
testSystem: SF-539
GI50: > 100 µM (inactive)

molecule: CCc1nc(N)nc(N)c1-c1ccc(N2CCNCC2)c([N+](=O)[O-])c1
testSystem: SF-539
GI50: 10.6 µM (inactive)

Give GI50 for each listed item.
1. COC(=O)c1nc(-c2nc(CCNC(=O)OC(C)(C)C)sc2Cl)sc1Cl
2. CCCC(O)c1cn(C(NC(=O)c2ccccc2)P(=O)(OCC)OCC)nn1 (stereo not given)
3. COc1cc2c(cc1OC)C13CCN4CC5=CCOC6CC(=O)N2C1C6C5CC43O (stereo not given)
4. N#C/N=C1\NC(Cc2ccccc2)C(=O)N1CCc1c[nH]c2ccccc12 (stereo not given)
5. COc1ccccc1C1C(C(=O)Nc2ccccc2)=C(C)NC(C)=C1C(=O)Nc1ccccc1
6. ClCCN(CCCl)c1ccc(CNCCCNCc2ccc(N(CCCl)CCCl)cc2)cc1
7. O=c1cc(CBr)c2ccc(O)cc2o1
8. O=C(O)c1cc2ccccc2c2c1C(=O)c1ccccc1-2

Output:
1: > 100 µM (inactive); 2: > 100 µM (inactive); 3: > 100 µM (inactive); 4: 29.6 µM (inactive); 5: 36.1 µM (inactive); 6: 1.46 µM (inactive); 7: > 100 µM (inactive); 8: > 100 µM (inactive)

----------
Tested on: SK-MEL-28
Assay: NCI tumour cell line growth inhibition, 48 h
The source made the active and inactive calls. Cut-off read from the data, not from the text of the source: active = GI50 up to about 1.1 µM and inactive = higher.
Thanks in advance; please answer with one of these: T (active), F (inactive)

compound: CC(=O)OC(C)(C)/C=C/C(=O)[C@](C)(O)[C@H]1[C@H](O)C[C@@]2(C)[C@@H]3CC=C4[C@@H](C[C@H](O)[C@H](O)C4(C)C)[C@]3(C)C(=O)C[C@]12C
qualitativeLabel: T
--
compound: CC(=O)NC1C(O)CC(OCCCSCCN)(C(=O)O)OC1C(O)C(O)CO (centres undefined)
qualitativeLabel: F
--
compound: CC1(C)CC(=O)C(C(c2cccc(O)c2O)C2C(=O)CC(C)(C)CC2=O)C(=O)C1
qualitativeLabel: F

Pending compound:
Task: Called result for `O=[N+]([O-])c1ccc(Oc2c(Cl)cc(S(=O)(=O)N/C(=N\O)Nc3ccc(Cl)cc3)cc2Cl)cc1`
Output: F

----------
Quick note: these are GI50 numbers for system: HCT-15

Recorded GI50, per entry:
compound: O=S1(=O)OCCOS(=O)(=O)C1S(=O)(=O)c1cccc2ccccc12
result: > 100 µM
--
compound: Nc1ccc(C(c2ccccc2)(c2ccccc2)c2ccccc2)cc1
result: 78.7 µM
--
compound: O=C(Cc1nc2ccc(C(=O)c3ccccc3)cc2nc1O)C(=O)Nc1ccccc1[N+](=O)[O-]
result: 46.3 µM
--
compound: O=C(O[C@H](/C=C/c1ccccc1)P1(=O)N(Cc2ccccc2)[C@@H]2CCCC[C@H]2N1Cc1ccccc1)c1ccccc1
result: 2.91 µM
--
compound: COC(=O)[C@@H]1Cc2cc(O)c(O)cc2C2(CCN(C)CC2)O1
result: > 10 µM
--
compound: Cc1cn([C@H]2C[C@@H](N3C(=O)c4ccccc4C3=O)[C@@H](CO[Si](C)(C)C(C)(C)C)O2)c(=O)[nH]c1=O
result: > 100 µM
--
compound: OC(c1cccs1)c1cc2ccccc2s1 (stereo unspecified)
result: > 10 µM
--
compound: COc1ccc(CNc2cc(=O)n(C)c(=O)[nH]2)cc1
result: > 100 µM
--
compound: CC1=C(C(=S)Nc2ccc(Cl)c(C(=O)OC(C)C)c2)SCCO1
result: 17.1 µM
--
compound: CC(C)(C)OC(=O)N1CC(CCl)c2ccc(O)cc21 (stereo unspecified)
result: 2.59 µM

Give GI50 for each listed item.
1. O=C1CC(O)c2c1csc2Br (stereo unspecified)
2. COc1ccc(C2=Nc3ccccc3SC(C)C2)cc1 (stereo unspecified)
3. Cc1cc(C)c2c(=N)c3ccccc3n(CCCCCCn3c4ccccc4c(=N)c4c(C)cc(C)nc43)c2n1
4. COc1ccc2c(c1)CN1CCc3c(cc(OC)c(OC)c3OC)C1C2 (stereo unspecified)

Output:
1. 18.5 µM
2. > 100 µM
3. 0.181 µM
4. > 100 µM

Give GI50 for each listed item.
1. C=C(C(=O)O[C@H]1C(=O)C2=C(C)CCC3C(=C)C(=O)O[C@@H]3C2[C@]1(C)O)C1CC[C@]2(C)CCCC(=C)[C@H]2C1 (stereo partly specified)
2. COCOC1/C=C/CCCCC(=O)C(C)C#CC1 (stereo unspecified)
3. CC1(C)N(OC2CCCCO2)C(c2ccccc2)C(c2ccccc2)=[N+]1[O-] (stereo unspecified)
4. S=c1[nH]c(=S)c2nnn(-c3ccccc3)c2[nH]1
5. NNC(=O)Cc1cccnc1

Output:
1: 3.48 µM; 2: 2.36 µM; 3: > 100 µM; 4: > 100 µM; 5: > 100 µM

Give GI50 for each listed item.
1. CC(C)(C)OC(=O)C1C(=O)NC(=O)CC1C(COCc1ccccc1)OCc1ccccc1 (stereo unspecified)
2. CCc1cc2c(c3c1CCC3=O)CC1(Cc3ccc(C)cc3C1)C2 (stereo unspecified)

Output:
1. 21.6 µM
2. 46.3 µM
